- TARGET_SYSTEM: KAT6A (Homo sapiens)
- Construct: Recombinant human His-tagged Kat6a protein (amino acids 194-810); His
- MEASUREMENT_PROTOCOL: Kat6a activity assay (TR-FRET, acetylation of biotinylated histone H4 peptide)
- COND: recombinant human His-tagged Kat6a (amino acids 194-810), 60 mins at 22° C., read-out: KAT6A-DPF/HAT domain IC50 [mol/l] (arithmetic mean)
Threshold 100 nM. IC50 below it: true. IC50 at it or above: false.

q: Is IC50 of "Cc1ccc2cccc(S(=O)(=O)NC(=O)c3cc4c(F)cc(C5CC5)cc4o3)c2n1" strictly below 100 nM?
a: true

q: Is IC50 of "Cc1ccc2cccc(S(=O)(=O)NC(=O)c3cc4c(OC(F)F)cc(C5CC5)cc4o3)c2n1" strictly below 100 nM?
a: true

Further cases:
q: Is IC50 of "Cc1ccc(S(=O)(=O)NC(=O)c2cc3c(C)cc(C)cc3o2)c(-c2ccccc2)c1" strictly below 100 nM?
a: true

q: Is IC50 of "CCOc1ccc(F)cc1S(=O)(=O)NC(=O)c1cc2c(F)cc(C3CC3)cc2o1" strictly below 100 nM?
a: true

q: Is IC50 of "COc1cc(C)cc2oc(C(=O)NS(=O)(=O)c3ccc(C)cc3-c3ccccc3)cc12" strictly below 100 nM?
a: false

---

- System: ESR1 transcription in MVLN cells
- MEASUREMENT_PROTOCOL: Repression of ESR1 transcription, MVLN luciferase reporter assay
- Assay type: cell-based
- COND: Homo sapiens, luciferase signal after 24 h, read-out: MVLN reporter assay, IC50[M] (arithmetic mean)
PROPERTY: IC50 (M)
Your answer is read as M, so omit the unit and give the number.

q: # input molecule: CCOc1ccc(C(C)CC)cc1S(=O)(=O)NC(=O)c1cc2c(F)cc(C3CC3)cc2o1 (stereo not drawn) ; wanted: its IC50
a: 7.41e-08

Further cases:
q: # input molecule: "Cc1ccc2cccc(S(=O)(=O)NC(=O)c3cc4ccc(C(F)(F)F)cc4o3)c2n1" ; wanted: its IC50
a: 3.63e-06

q: # input molecule: "O=C(NS(=O)(=O)c1ccc(Cl)cc1Cl)c1cc2c(F)cc(C3CC3)cc2o1" ; wanted: its IC50
a: 1.06e-05

q: # input molecule: "CCOc1ccccc1S(=O)(=O)NC(=O)c1cc2ccc(C(C)C)cc2o1" ; wanted: its IC50
a: 1.34e-06

q: # input molecule: "O=C(NS(=O)(=O)c1ccccc1)c1cc2c(F)cc(C3CC3)cc2o1" ; wanted: its IC50
a: 4.57e-06

q: # input molecule: "CC(C)c1ccc(OCC(F)(F)F)c(S(=O)(=O)NC(=O)c2cc3c(F)cc(C4CC4)cc3o2)c1" ; wanted: its IC50
a: 2.98e-07

q: # input molecule: "O=C(NS(=O)(=O)c1ccccc1-c1ccccc1)c1cc2c(F)cc(C3CC3)cc2o1" ; wanted: its IC50
a: 1e-06

q: # input molecule: "O=C(NS(=O)(=O)c1ccccc1)c1cc2c(C(F)(F)F)cc(C3CC3)cc2o1" ; wanted: its IC50
a: 1.88e-05

---

- System: ESR1 transcription in MVLN cells
- MEASUREMENT_PROTOCOL: Repression of ESR1 transcription, MVLN luciferase reporter assay
- Format: cell-based
- COND: Homo sapiens, luciferase signal after 24 h, read-out: MVLN reporter assay, IC50[M] (arithmetic mean)
Measured log10 IC50 values are reported for all entries that follow.
All values: base-10 log of IC50 in M.

Sample records with log10 IC50:
q: # input compound: O=C(NS(=O)(=O)c1ccccc1-c1ccccc1)c1cc2ccc(-c3cccnc3)cc2o1 [Example 4] ; wanted: its log10 IC50
a: -4.70

q: # input compound: CC(C)(C)c1ccc(OCC(F)(F)F)c(S(=O)(=O)NC(=O)c2cc3c(F)cc(C4CC4)cc3o2)c1 [Example 62] ; wanted: its log10 IC50
a: -6.62

q: # input compound: CCOc1ccc(OC(F)(F)F)cc1S(=O)(=O)NC(=O)c1cc2c(F)cc(C3CC3)cc2o1 [Example 34] ; wanted: its log10 IC50
a: -5.85

Further cases:
q: # input compound: Cc1ccc2cccc(S(=O)(=O)NC(=O)c3cc4c(N(C)C)cc(C5CC5)cc4o3)c2n1 [Example 43] ; wanted: its log10 IC50
a: -5.16

q: # input compound: CCOc1cc(F)ccc1S(=O)(=O)NC(=O)c1cc2c(F)cc(C3CC3)cc2o1 [Example 30] ; wanted: its log10 IC50
a: -6.55

q: # input compound: CC(C)c1ccc2cc(C(=O)NS(=O)(=O)c3ccccc3Cl)oc2c1 [Example 73] ; wanted: its log10 IC50
a: -5.06

q: # input compound: COCCc1ccc2cc(C(=O)NS(=O)(=O)c3ccccc3-c3ccccc3)oc2c1 [Example 26] ; wanted: its log10 IC50
a: -4.81

q: # input compound: CC(C)c1ccc(OCC2CC2(F)F)c(S(=O)(=O)NC(=O)c2cc3c(F)cc(C4CC4)cc3o2)c1 (centres unmarked) [Example 67] ; wanted: its log10 IC50
a: -7.08

---

Measured EC50 values are reported for all entries that follow.
- System: ZR-75-1 cells
- MEASUREMENT_PROTOCOL: Proliferation assay in ZR-75-1 cells
- Assay type: cell-based
- COND: Homo sapiens, 144 h, Alamar Blue, read-out: ZR75-1 proliferation assay, EC50[M] (arithmetic mean)
Your answer is read as M, so omit the unit and give the number.

q: # input compound: O=C(NS(=O)(=O)c1ccccc1-c1ccccc1)c1cc2ccc(C3CC3)c(F)c2o1 [Example 15] ; wanted: its EC50
a: 8.42e-06

Here is another compound to look at.
q: # input compound: COc1cc(C)cc2oc(C(=O)NS(=O)(=O)c3ccc(C)cc3-c3ccccc3)cc12 [Example 12] ; wanted: its EC50
a: 1.03e-05

---

- TARGET_SYSTEM: KAT6A (Homo sapiens, UniProt Q92794)
- Construct: Recombinant human His-tagged Kat6a protein (amino acids 194-810); His
- Sequence (Q92794 194-810): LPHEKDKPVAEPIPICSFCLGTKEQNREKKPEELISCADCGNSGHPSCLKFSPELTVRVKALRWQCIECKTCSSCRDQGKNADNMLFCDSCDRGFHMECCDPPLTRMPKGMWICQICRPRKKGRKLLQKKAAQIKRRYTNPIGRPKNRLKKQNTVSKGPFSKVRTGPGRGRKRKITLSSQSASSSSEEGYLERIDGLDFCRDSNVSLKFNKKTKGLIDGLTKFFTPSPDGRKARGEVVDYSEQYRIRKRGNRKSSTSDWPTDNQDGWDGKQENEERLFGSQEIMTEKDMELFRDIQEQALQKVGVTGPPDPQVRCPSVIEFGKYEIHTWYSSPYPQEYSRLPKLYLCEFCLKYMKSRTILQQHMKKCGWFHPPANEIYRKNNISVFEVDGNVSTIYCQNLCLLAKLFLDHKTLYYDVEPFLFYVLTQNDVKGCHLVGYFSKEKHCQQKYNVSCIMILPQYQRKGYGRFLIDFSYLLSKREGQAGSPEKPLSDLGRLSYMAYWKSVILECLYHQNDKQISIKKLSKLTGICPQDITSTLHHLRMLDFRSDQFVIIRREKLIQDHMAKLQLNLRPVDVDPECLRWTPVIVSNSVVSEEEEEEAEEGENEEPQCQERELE
- MEASUREMENT_PROTOCOL: Kat6a activity assay (TR-FRET, acetylation of biotinylated histone H4 peptide)
- COND: recombinant human His-tagged Kat6a (amino acids 194-810), 60 mins at 22° C., read-out: KAT6A-DPF/HAT domain IC50 [mol/l] (arithmetic mean)
Threshold 70 nM. IC50 below it: criterion met. IC50 at it or above: criterion not met.

q: Is IC50 of CCC(C)c1ccc2cc(C(=O)NS(=O)(=O)c3ccccc3-c3ccccc3)oc2c1 (stereo not shown) strictly below 70 nM?
a: criterion not met

Okay, now this compound:
q: Is IC50 of "O=C(NS(=O)(=O)c1ccc(Cl)cc1Cl)c1cc2c(F)cc(C3CC3)cc2o1" strictly below 70 nM?
a: criterion not met

---

- TARGET_SYSTEM: KAT6A (Homo sapiens, UniProt Q92794)
- Construct: Recombinant human His-tagged Kat6a protein (amino acids 194-810); His
- MEASUREMENT_PROTOCOL: Kat6a activity assay (TR-FRET, acetylation of biotinylated histone H4 peptide)
- COND: recombinant human His-tagged Kat6a (amino acids 194-810), 60 mins at 22° C., read-out: KAT6A-DPF/HAT domain IC50 [mol/l] (arithmetic mean)
pIC50: −log10 of the molar value.
Class membership depends on pIC50 alone; the intervals are low = under 7, intermediate = from 7 up to 8, high = 8 and over

q: Tag the class for CC(C)c1ccc(OC2CCC2)c(S(=O)(=O)NC(=O)c2cc3c(F)cc(C4CC4)cc3o2)c1 [Example 65]
a: high

q: Tag the class for CCOc1ccccc1S(=O)(=O)NC(=O)c1cc2c(OC(F)F)cc(C3CC3)cc2o1 [Example 49]
a: intermediate

q: Tag the class for O=C(NS(=O)(=O)c1ccccc1-c1ccccc1)c1cc2ccc(C3CC3)c(F)c2o1 [Example 15]
a: low

q: Tag the class for CCOc1ccccc1S(=O)(=O)NC(=O)c1cc2c(-n3ccnc3)cc(C3CC3)cc2o1 [Example 58]
a: intermediate

q: Tag the class for O=C(NS(=O)(=O)c1ccccc1-c1ccccc1)c1cc2ccc(-c3cccnc3)cc2o1 [Example 4]
a: low

Further cases:
q: Tag the class for CN(C)C(=O)c1ccc2cc(C(=O)NS(=O)(=O)c3ccccc3-c3ccccc3)oc2c1 [Example 8]
a: low

q: Tag the class for CCOc1ccccc1S(=O)(=O)NC(=O)c1cc2c(C(F)(F)F)cc(C3CC3)cc2o1 [Example 51]
a: intermediate

q: Tag the class for CC(C)c1ccc(OCC2CC2(F)F)c(S(=O)(=O)NC(=O)c2cc3c(F)cc(C4CC4)cc3o2)c1 (stereo not shown) [Example 67]
a: high

q: Tag the class for O=C(NS(=O)(=O)c1ccccc1-c1ccccc1)c1cc2ccc(-c3ccc(F)cc3)cc2o1 [Example 1]
a: low

q: Tag the class for O=C(NS(=O)(=O)c1ccccc1-c1ccccc1)c1cc2ccc(-c3ccncc3)cc2o1 [Example 20]
a: low

q: Tag the class for CN(C)c1cc(C2CC2)cc2oc(C(=O)NS(=O)(=O)c3ccccc3)cc12 [Example 42]
a: low
